- Test system: Hepatitis B virus
- measurement_protocol: Antiviral activity against HBV infected in human HePAD38 cells assessed as decay of viral capsid protein by agarose gel electrophoresis-based assay
- Format: functional, organism-based
Calls of active or inactive are those of the source. No cut-off for these calls is given here.
Respond only with the outcome that fits, drawn from active, inactive

Before answering, review these 5 worked examples.
compound | discrete_label
COC(=O)c1c(S(=O)(=O)N2CCC[C@H](C(=O)Nc3ccc(F)c(C)c3)C2)c(C)n(C(F)F)c1C | inactive
CCOC(=O)c1c(S(=O)(=O)N2CCCC(C(=O)Nc3ccc(F)c(Cl)c3)C2)c(C)n(C)c1C (stereo not drawn) | active
CCOC(=O)c1c(S(=O)(=O)N2CCCC(C(=O)Nc3ccc(F)c(F)c3)C2)c(C)n(C)c1C (stereo not drawn) | active
Cc1cc(NC(=O)c2cccc(S(=O)(=O)N[C@H]3CCOC3)c2)ccc1F | inactive
Cc1c(C#N)c(S(=O)(=O)N2CCC[C@H](C(=O)Nc3ccc(F)c(Cl)c3)C2)c(C)n1C | inactive

Hey, what did the test say about `COC(=O)C1=C(C)NC(c2ncc(F)cc2F)=N[C@H]1c1ccc(F)cc1Cl` ?
active

Hey, what did the test say about `CCOC(=O)c1c(S(=O)(=O)N2CCC[C@H](C(=O)Nc3ccc(F)c(C)c3)C2)c(C)n(CC(F)(F)F)c1C` ?
inactive

Hey, what did the test say about `CCOC(=O)c1c(S(=O)(=O)N2CCC[C@H](C(=O)Nc3ccc(F)c(C)c3)C2)c(C)n(C2CC2)c1C` ?
inactive

The origin of these recorded values is ChEMBL document CHEMBL5331101.
